The entries below come with measured composite z-score values attached.
assay method text: binders of probe aFGF10 on microarray, primary screen, stem cell growth factor project, biochemical, small-molecule microarray, fluorescence 635/667 (AID 1071);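 further: score merges 667 nm spot intensity and signal to noise from triplicate slides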
assay setup: higher = more signal
endpoint label: composite z-score

>  <entry smiles>
COCCOC(=O)N1C(=O)[C@@]2(c3cc(C#CCNC(N)=O)ccc31)[C@H](c1ccc(OCCO)cc1)N1[C@H](c3ccccc3)[C@H](c3ccccc3)OC(=O)[C@H]1[C@@H]2C(=O)Nc1nc2ccccc2s1

>  <endpoint label>
composite z-score

>  <reported>
0.371

$$$$
>  <entry smiles>
COCCOC(=O)N1C(=O)[C@@]2(c3ccccc31)[C@H](C(=O)N1CCc3cc(OC)c(OC)cc3C1)[C@H]1C(=O)O[C@H](c3ccccc3)[C@H](c3ccccc3)N1[C@@H]2c1ccccc1OCCO

>  <endpoint label>
composite z-score

>  <reported>
0.66

$$$$
>  <entry smiles>
CO[C@H]1O[C@H](CO)[C@@H](OC(=O)Nc2ccccc2)[C@H](OC(=O)Nc2ccc3c(c2)OCO3)[C@@H]1OC(=O)Nc1ccc2c(c1)OCO2

>  <endpoint label>
composite z-score

>  <reported>
0.158

$$$$

---

Readings of z-score for the listed compounds
assay method text: E. coli acrAB mutant growth effects, primary screen, E. coli filamentation inducers, strain DRC39, OD650, 24 h (AID 1178);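 further: growth measured as culture turbidity by optical density at 650 nm; test concentration not given here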
assay setup: higher = more signal, called active from +8 up or from −8 down

>  <compound>
O=C1NC(=O)C2C1C=CC(C(O)C=Cc1ccc([N+](=O)[O-])cc1)N2Nc1ccccn1 (stereo not given)

>  <z-score>
0.195

$$$$
>  <compound>
C=CCc1cccc([C@@H]2[C@@H](C)CC[C@H]3C(=O)N4[C@H](c5cccc(CC=C)c5)[C@@H](C)CC[C@H]4C(=O)N23)c1

>  <z-score>
0.55

$$$$
>  <compound>
O=C(NCC(F)(F)F)[C@@H]1c2ccccc2C(=O)N(Cc2ccccc2Cl)[C@H]1c1ccc(CO)cc1

>  <z-score>
0.113

$$$$
>  <compound>
CCOC(=O)C[C@H]1[C@H](OC(=O)Cc2ccc3c(c2)OCO3)[C@@H](NC(=O)CC(C)C)c2cc(OCCCO)ccc2N1C(=O)c1ccccc1

>  <z-score>
2.13

$$$$
>  <compound>
C#CCCCON=C1C[C@@H](O)[C@@H](O)[C@@H]2[C@@H]3C(=O)N(Cc4ccc5c(c4)OCO5)C(=O)[C@@H]3CC[C@H]12

>  <z-score>
0.483

$$$$
>  <compound>
CC1=C([C@H](O)CCc2ccccc2)[C@H](CO)[C@@H]2C(=O)N(Cc3ccccc3)C(=O)[C@@H]2C1

>  <z-score>
1.6

$$$$
>  <compound>
O=C1OCC=C[C@H]2OC34C=CCN(Cc5ccccc5)C(=O)[C@H]3N(CCCCCO)C(=O)[C@@H]4[C@@H]12 (stereo not given in full)

>  <z-score>
1.77

$$$$
>  <compound>
Cc1ccccc1C(O)C1C=CC2C(=O)N(c3ccccc3)C(=O)C2N1Nc1ccc(C#N)cc1 (stereo not given)

>  <z-score>
0.493

$$$$
>  <compound>
CCCNC(=O)[C@@H]1c2ccccc2C(=O)N(C2CCCCC2)[C@H]1c1ccc(CO)cc1

>  <z-score>
0.619

$$$$
>  <compound>
CCCC[C@H]1OB(O)C[C@H]2C1=C(COC)C[C@H]1C(=O)N(Cc3ccccc3)C(=O)[C@H]12

>  <z-score>
2.53

$$$$
>  <compound>
CN1C(=O)C2C=CC(C(O)C3CC=CCC3)N(Nc3ccccc3)C2C1=O (stereo not given)

>  <z-score>
-1.11

$$$$
>  <compound>
COc1ccc([Si](C)(C)[C@H]2[C@H](CC(=O)N(CCO)Cc3ccccc3)O[C@@]3(C(=O)N(C)c4ccccc43)[C@@H]2C)cc1

>  <z-score>
0.681

$$$$
>  <compound>
COc1cc2c(cc1OC)CN(C(=O)[C@@H]1[C@H]3C(=O)O[C@H](c4ccccc4)[C@H](c4ccccc4)N3[C@H](c3ccccc3OCCO)[C@@]13C(=O)Nc1ccccc13)CC2

>  <z-score>
0.392

$$$$
>  <compound>
CO[C@H]1COC(=O)CC=C[C@H](C)COC(=O)[C@@H](OCc2ccccc2)C=C[C@@H]1C

>  <z-score>
0.566

$$$$
>  <compound>
C=C(COC)/C(=C/C[C@@H](OC(C)=O)c1cccc(OCCO)c1)c1cc(C(=O)OC)ccc1OC

>  <z-score>
2.1

$$$$
>  <compound>
CCCC=C(CCC)[C@@H](NS(=O)(=O)c1ccc(-c2ccccc2)cc1)c1ccc(C(=O)OC)cc1

>  <z-score>
-0.811

$$$$
>  <compound>
COc1ccc([Si](C)(C)[C@@H]2[C@@H](CCO)O[C@]3(C(=O)N(Cc4ccc(NC(=O)[C@H](C)O)cc4)c4ccccc43)[C@H]2C)cc1

>  <z-score>
1.26

$$$$
>  <compound>
C[C@H]1COC(=O)[C@@H]2CCCN2C(=O)[C@@H](C)COC(=O)[C@@H]2CCCN2C1=O

>  <z-score>
0.825

$$$$
>  <compound>
COc1cccc([C@@H]2[C@@H](C)CC[C@H]3C(=O)N(C)[C@@H](C(C)C)C(=O)N23)c1

>  <z-score>
0.847

$$$$
>  <compound>
CC(C)NC(=O)[C@@]1(Cc2ccccc2I)c2ccccc2C(=O)N(C2CCCCC2)[C@H]1c1ccc(CO)cc1

>  <z-score>
0.545

$$$$
>  <compound>
COc1ccc(NN2C(C(O)c3cc(OC)c(OC)c(OC)c3)C=CC3C(=O)N(C4CCCCC4)C(=O)C32)cc1 (stereo not given)

>  <z-score>
-1.02

$$$$
>  <compound>
COc1ccc([Si](C)(C)[C@@H]2[C@@H](CC(=O)N(CCO)Cc3ccccc3)O[C@]3(C(=O)N(Cc4cccc(N5CCC5=O)c4)c4ccccc43)[C@H]2C)cc1

>  <z-score>
0.882

$$$$
>  <compound>
CCC#CCN(Cc1ccccc1Br)[C@H](/C=C/c1ccccc1)[C@@H](O)Cc1ccccc1

>  <z-score>
1.19

$$$$
>  <compound>
CC(C)N1CC=CC23O[C@@H]4/C=C\CCCOC(=O)C4[C@H]2C(=O)N(CCCCCO)[C@@H]3C1=O (stereo not given in full)

>  <z-score>
1.26

$$$$
>  <compound>
COc1ccc([C@H]2C[C@H]3C(Br)=C[C@]2(OC)C(=O)[C@]32CO2)cc1

>  <z-score>
0.238

$$$$
>  <compound>
C=C(CCCC)C(=O)CC[C@@H](OC(=O)c1cccnc1)c1cccc(OCCO)c1

>  <z-score>
1.24

$$$$
>  <compound>
C[C@@H]1NC(=O)CC=C[C@@H](C)[C@@H]2C=C[C@H](O)[C@@H](COC(=O)[C@H](C)NC(=O)CC=C[C@@H](C)[C@@H]3C=C[C@H](O)[C@@H](COC1=O)O3)O2

>  <z-score>
0.953

$$$$
>  <compound>
C[C@@H]1NC(=O)[C@H](Cc2ccccc2)NC(=O)[C@@]23C(=O)N[C@@H](Cc4ccccc4)C2[C@H](C)[C@@]2(C)O[C@H]2C3/C=C/C/C=C\CNC1=O (stereo not given in full)

>  <z-score>
-0.593

$$$$
>  <compound>
COC(=O)C1=C(C)N(Cc2ccccc2)c2c(C(=O)OC)c(C(=O)OC)c(C(=O)OC)c(=O)n2[C@@H]1c1ccccc1

>  <z-score>
-0.0311

$$$$
>  <compound>
C=C(C)[C@@H]1CC=C(C(O)C2C=CC3C(=O)NC(=O)C3N2Nc2ccccn2)CC1 (stereo not given in full)

>  <z-score>
-0.575

$$$$

---

assay method text: binders of probe aFSTL3 on microarray, primary screen, stem cell growth factor project, biochemical, small-molecule microarray, fluorescence 635/667 (AID 1064);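 further: measures binding of the biotinylated anti-FSTL3 antibody to printed compounds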
assay setup: higher = more signal
Entries and their composite z-score

>  <compound>
COC(=O)[C@@]1(Cc2ccccc2)[C@H]2c3cc(C(=O)N4CCCC4)n(CCN4CNCC4=O)c3C[C@H]2CN1C(=O)c1ccccc1

>  <composite z-score>
0.243

$$$$
>  <compound>
CO[C@H]1O[C@H](CO)[C@@H](OC(=O)Nc2ccc(Oc3ccccc3)cc2)[C@H](OC(=O)Nc2ccccc2-c2ccccc2)[C@H]1OC(=O)Nc1ccccc1-c1ccccc1

>  <composite z-score>
-0.448

$$$$
>  <compound>
CO[C@H]1O[C@H](CO)[C@@H](OC(=O)Nc2ccc3c(c2)OCO3)[C@H](OC(=O)Nc2ccccc2)[C@@H]1OC(=O)Nc1ccccc1

>  <composite z-score>
-0.214

$$$$
>  <compound>
CC(C)NC(=O)[C@@]1(Cc2ccccc2I)c2ccccc2C(=O)N(C2CCCCC2)[C@H]1c1ccc(CO)cc1

>  <composite z-score>
-0.107

$$$$
>  <compound>
CCOC(=O)C[C@H]1[C@H](OC(=O)Cc2ccc3c(c2)OCO3)[C@@H](NC(=O)CC(C)C)c2cc(OCCCO)ccc2N1C(=O)c1ccccc1

>  <composite z-score>
-0.0798

$$$$
>  <compound>
COCCOC(=O)N1C(=O)[C@@]2(c3cc(C#CCC(C(=O)OC)C(=O)OC)ccc31)[C@H](c1ccccc1OCCO)N1[C@H](c3ccccc3)[C@H](c3ccccc3)OC(=O)[C@H]1[C@@H]2C(=O)N1CCCCCCC1

>  <composite z-score>
3.6

$$$$
>  <compound>
C[C@]1(C(=O)NCc2ccccc2)c2ccccc2C(=O)N(Cc2cc(C(F)(F)F)cc(C(F)(F)F)c2)[C@H]1c1ccc(CO)cc1

>  <composite z-score>
0.158

$$$$
>  <compound>
C=CCC1=C[C@H]2[C@H]([C@@H]3C=C[C@]2(CC=C)C(=O)[C@]32CO2)[C@@]2(CO2)C1=O

>  <composite z-score>
0.076

$$$$
>  <compound>
CCOC(=O)C1=CCC(c2cccc3ccccc23)N(S(=O)(=O)c2ccc(C)cc2)C1 (configuration not stated)

>  <composite z-score>
0.609

$$$$
>  <compound>
CCN1C(C)=C(C(=O)OC)[C@@H](c2ccccc2)N2C(=O)[C@@]3(C(=O)OC)O[C@@]12[C@@H]1C(=O)CCC[C@@H]13

>  <composite z-score>
-0.65

$$$$
>  <compound>
O=C1c2ccccc2[C@](Cc2ccccc2I)(C(=O)NCc2ccccc2)[C@H](c2ccc(CO)cc2)N1Cc1ccccc1C(F)(F)F

>  <composite z-score>
0.988

$$$$
>  <compound>
C=C[C@H](OC)[C@@H](OC(=O)Nc1ccc(SC)cc1)c1ccc(OC)c(O)c1

>  <composite z-score>
0.687

$$$$
>  <compound>
CO[C@H]1COC(=O)[C@@H](OCc2ccccc2)C=C[C@H](C)[C@@H](OC)COC(=O)[C@H](OCc2ccccc2)C=C[C@@H]1C

>  <composite z-score>
-0.617

$$$$
>  <compound>
C=CC[C@@]1(C(=O)NCC(O)CO)N=C(c2ccc(OCCCO)cc2)O[C@@H]1c1ccccc1CN=[N+]=[N-] (some centres not stated)

>  <composite z-score>
0.325

$$$$
>  <compound>
CO[C@H]1COC(=O)[C@H](C)NC(=O)CC=C[C@@H](C)[C@H](NS(=O)(=O)c2ccc(C)cc2)COC(=O)[C@@H](OCc2ccccc2)C=C[C@@H]1C

>  <composite z-score>
-0.452

$$$$
>  <compound>
COCCOC(=O)N1C(=O)[C@@]2(c3cc(C#CC4=CCCCC4)ccc31)[C@H](c1ccc(O)cc1)N1[C@H](c3ccccc3)[C@H](c3ccccc3)OC(=O)[C@H]1[C@@H]2C(=O)N1CCCCCCC1

>  <composite z-score>
2.57

$$$$
>  <compound>
N#Cc1ccc(NN2C(C(O)CCc3ccccc3)C=CC3C(=O)N(c4ccccc4)C(=O)C32)cc1 (configuration not stated)

>  <composite z-score>
0.681

$$$$
>  <compound>
CC1=C([C@H](O)CCc2ccccc2)[C@H](CO)[C@@H]2C(=O)N(Cc3ccccc3)C(=O)[C@@H]2C1

>  <composite z-score>
-0.183

$$$$
>  <compound>
CCCCO[C@H]1C[C@H]2C(Br)=C[C@@]1(CO)C(=O)[C@]21CO1

>  <composite z-score>
-0.599

$$$$
>  <compound>
Cc1ccc(S(=O)(=O)N[C@H]2COC(=O)CC=C[C@H](C)COC(=O)N[C@@H](C)C(=O)CC=C[C@@H]2C)cc1

>  <composite z-score>
-0.667

$$$$
>  <compound>
COc1cccc([C@@H]2[C@@H](C)CC[C@H]3C(=O)N4[C@H](c5cccc(OC)c5)[C@@H](C)CC[C@H]4C(=O)N23)c1

>  <composite z-score>
-0.197

$$$$
>  <compound>
COc1ccc([Si](C)(C)[C@H]2[C@H](CC(=O)N3Cc4ccccc4C[C@H]3CO)O[C@@]3(C(=O)N(Cc4cccc(N5CCOC5=O)c4)c4ccccc43)[C@@H]2C)cc1

>  <composite z-score>
0.0766

$$$$
>  <compound>
Cc1ccc(S[C@]2(C(=O)NCCCN(C)C)CC(=O)N(Cc3ccccc3)[C@@H]2c2ccc(CO)cc2I)cc1

>  <composite z-score>
1.04

$$$$
>  <compound>
COc1ccc([Si](C)(C)[C@H]2[C@H](CCO)O[C@@]3(C(=O)N(Cc4ccccc4)c4ccc(N5C(=O)c6cccc7cccc5c67)cc43)[C@@H]2C)cc1

>  <composite z-score>
0.334

$$$$
>  <compound>
CC[C@@H]1C=C(C(=O)O)[C@H](c2ccccc2)N1S(=O)(=O)c1ccc([N+](=O)[O-])cc1

>  <composite z-score>
0.0455

$$$$
>  <compound>
O=C1C2C=CC(C(O)Cc3ccccc3)N(Nc3ccc([N+](=O)[O-])cc3)C2C(=O)N1c1ccccc1 (configuration not stated)

>  <composite z-score>
0.159

$$$$
>  <compound>
C=CCNC(=O)[C@H]1[C@@H]2C(=O)O[C@@H](c3ccccc3)[C@@H](c3ccccc3)N2[C@@H](c2ccccc2OCCO)[C@]12C(=O)N(C(=O)OCCOC)c1ccc(C#CCC(C(=O)OC)C(=O)OC)cc12

>  <composite z-score>
-0.257

$$$$

Reference source for all entries: PubChem BioAssay
